Assay: Study .5: single dose study in healthy Japanese volunteers, pharmacokinetic parameters
Type: in vivo, human
Settings: human, plasma, oral, 5 mg, 5 mg single dose, Study .5, fasted; read-out: Cmax Median
observation.type: Cmax (nM)
Give bare numbers, in nM.

What value of measured Cmax is listed for OC[C@H]1O[C@@H](c2ccc(Cl)c(Cc3ccc(O[C@H]4CCOC4)cc3)c2)[C@H](O)[C@@H](O)[C@@H]1O [Compound (I.9)] ? 153

====

Experiment: Pharmacokinetic profile in fasting humans, ranges over Studies .1 to .5
Format: in vivo
Conditions: human, plasma, oral, 5 mg, single dose of 5.0 mg, read-out: AUC0-inf
observation.type: AUC(0-inf)

Given the compound OC[C@H]1O[C@@H](c2ccc(Cl)c(Cc3ccc(O[C@H]4CCOC4)cc3)c2)[C@H](O)[C@@H](O)[C@@H]1O [Compound (I.9)] , what is its reported AUC(0-inf)? 1 to 1.31 µM·h
